Origin of the recorded values: the supplement of paper PMC10126150

As shown below, each of these sequences has a reported switch fluorescence ratio value.
tested on: ATP; experiment: switch fluorescence ratio, 500 uM ATP over buffer (Cy3 cluster intensity, sum of 5 cycles each) (fold (ratio)); higher = stronger signal-on switching upon ATP binding; sequences stand for … in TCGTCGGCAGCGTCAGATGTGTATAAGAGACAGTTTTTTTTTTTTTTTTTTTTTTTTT…TC; conditions: aptamer strand: ATP DNA aptamer (quencher-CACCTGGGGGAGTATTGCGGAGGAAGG + anchor), 100 nM annealed; ATP concentration: 500 uM;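 also: ATP exposure 15 min at 22 °C before imaging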
Returns: the value as a bare number; no unit string appended.

Recorded results for 10 sequences are shown here.
> print(dat)
    sequence.chain  tested.on  quantitative.readout
 1      TTTGCTGGAA        ATP                 0.995
 2       TCTAAATCG        ATP                  1.04
 3      TCAAGGGGGA        ATP                     1
 4      GGGGAAACGA        ATP                 0.999
 5      CAGGTGATAC        ATP                  2.42
 6      TATACTCAGC        ATP                  1.03
 7      GGTTGGTTGG        ATP                 0.977
 8      GTTTTTTGCG        ATP                 0.999
 9      AACGTTATCT        ATP                  1.04
10      TTTGCATCTT        ATP                 0.998

Which value of switch fluorescence ratio has been reported for CTGGCAGTGG in the records?
1.05

----------
As shown below, each of these sequences has a reported switch fluorescence ratio value.
tested on: ATP; test: switch fluorescence ratio, 500 uM ATP over buffer (Cy3 cluster intensity, sum of 5 cycles each) (fold (ratio)); higher = stronger signal-on switching upon ATP binding; sequences stand for … in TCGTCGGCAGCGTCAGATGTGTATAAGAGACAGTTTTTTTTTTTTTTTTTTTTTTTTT…TC; details: aptamer strand: ATP DNA aptamer (quencher-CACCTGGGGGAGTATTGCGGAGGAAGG + anchor), 100 nM annealed; ATP concentration: 500 uM;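 also: ATP exposure 15 min at 22 °C before imaging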

Recorded results for 3 sequences are shown here.
> print(dat)
   sequence.chain         attribute.measured  result
1      TCGTGATTGG  switch fluorescence ratio    1.01
2      ATATTCGCTC  switch fluorescence ratio    1.12
3      TTTGACTTTC  switch fluorescence ratio    1.07

Which value of switch fluorescence ratio has been reported for GGTGACGATT in the records?
0.971

Which value of switch fluorescence ratio has been reported for TTGCTGGGAT in the records?
1.02

Which value of switch fluorescence ratio has been reported for GGTTCCACGC in the records?
1.09

Which value of switch fluorescence ratio has been reported for AGCCTTATCC in the records?
1.09

Which value of switch fluorescence ratio has been reported for GTAGAAAGTT in the records?
0.984

Which value of switch fluorescence ratio has been reported for AGCCGGATCA in the records?
0.993

Which value of switch fluorescence ratio has been reported for AGGTGTTAAA in the records?
0.994

Which value of switch fluorescence ratio has been reported for TGGTTCCCAG in the records?
1.04

Which value of switch fluorescence ratio has been reported for GGGAAAAAAG in the records?
0.994

Which value of switch fluorescence ratio has been reported for AGGGGCCATT in the records?
1.01

----------
test system: ATP; experiment: switch fluorescence ratio, 500 uM ATP over buffer (Cy3 cluster intensity, sum of 5 cycles each) (fold (ratio)); higher = stronger signal-on switching upon ATP binding; sequences stand for … in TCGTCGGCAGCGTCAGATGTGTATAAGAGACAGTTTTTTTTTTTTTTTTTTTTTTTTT…TC; settings: aptamer strand: ATP DNA aptamer (quencher-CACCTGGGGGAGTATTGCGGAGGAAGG + anchor), 100 nM annealed; ATP concentration: 500 uM;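 also: ATP exposure 15 min at 22 °C before imaging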
As shown below, each of these sequences has a reported switch fluorescence ratio value.
Returns: the value as a bare number; no unit string appended.

Recorded results for 8 sequences are shown here.
> print(dat)
   sequence.chain         attribute.measured  quantitative.readout
1      AGAGTGGAAG  switch fluorescence ratio                 0.977
2      TTACTTTTTC  switch fluorescence ratio                  1.01
3      GCACGTCGAA  switch fluorescence ratio                  1.08
4      AGTGTAAGCC  switch fluorescence ratio                 0.962
5      GCGGTGGACG  switch fluorescence ratio                 0.947
6      CCATATTTGG  switch fluorescence ratio                  1.03
7      CGACCATTAA  switch fluorescence ratio                  1.26
8      CGGATGAGTG  switch fluorescence ratio                 0.953

Which value of switch fluorescence ratio has been reported for TCTAGCGTAC in the records?
2.64

Which value of switch fluorescence ratio has been reported for AAAAAATCGG in the records?
1

Which value of switch fluorescence ratio has been reported for ACTAAGCTTG in the records?
1

Which value of switch fluorescence ratio has been reported for CAACGCCTCC in the records?
3.52

Which value of switch fluorescence ratio has been reported for GAGACTGATG in the records?
1.05

----------
system: ATP; assay: switch fluorescence ratio, 500 uM ATP over buffer (Cy3 cluster intensity, sum of 5 cycles each) (fold (ratio)); higher = stronger signal-on switching upon ATP binding; sequences stand for … in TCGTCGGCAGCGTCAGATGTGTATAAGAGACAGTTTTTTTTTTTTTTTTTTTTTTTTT…TC; conditions: aptamer strand: ATP DNA aptamer (quencher-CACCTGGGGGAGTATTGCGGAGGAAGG + anchor), 100 nM annealed; ATP concentration: 500 uM;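 also: ATP exposure 15 min at 22 °C before imaging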
As shown below, each of these sequences has a reported switch fluorescence ratio value.
Returns: the value as a bare number; no unit string appended.

Recorded results for 5 sequences are shown here.
> print(dat)
   sequence.chain  quantitative.readout
1      TTTTGATTTT                  1.02
2      TTAATAGCGT                 0.999
3      TCGGCTTGGC                  1.03
4      CGGAGGAATT                   1.2
5      AAACACAGGG                  1.07

Which value of switch fluorescence ratio has been reported for CCAGGGTATA in the records?
1.03

Which value of switch fluorescence ratio has been reported for GGTATATCTG in the records?
1.01

----------
tested on: ATP; assay: switch fluorescence ratio, 500 uM ATP over buffer (Cy3 cluster intensity, sum of 5 cycles each) (fold (ratio)); higher = stronger signal-on switching upon ATP binding; sequences stand for … in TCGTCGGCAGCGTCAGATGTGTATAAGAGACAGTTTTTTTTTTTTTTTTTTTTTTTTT…TC; settings: aptamer strand: ATP DNA aptamer (quencher-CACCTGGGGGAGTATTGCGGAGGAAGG + anchor), 100 nM annealed; ATP concentration: 500 uM;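 also: ATP exposure 15 min at 22 °C before imaging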
Attribute measured: switch fluorescence ratio
Returns: the value as a bare number; no unit string appended.

Which value of switch fluorescence ratio has been reported for AAGAACTTAG in the records?
1.03

Which value of switch fluorescence ratio has been reported for GGGTGTAATC in the records?
1.01

Which value of switch fluorescence ratio has been reported for AGGTGAAGGT in the records?
1.01

----------
tested on: ATP; experiment: switch fluorescence ratio, 500 uM ATP over buffer (Cy3 cluster intensity, sum of 5 cycles each) (fold (ratio)); higher = stronger signal-on switching upon ATP binding; sequences stand for … in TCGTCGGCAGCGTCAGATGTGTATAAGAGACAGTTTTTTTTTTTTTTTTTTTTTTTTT…TC; details: aptamer strand: ATP DNA aptamer (quencher-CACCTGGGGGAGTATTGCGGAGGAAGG + anchor), 100 nM annealed; ATP concentration: 500 uM;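 also: ATP exposure 15 min at 22 °C before imaging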
Attribute measured: switch fluorescence ratio
Returns: the value as a bare number; no unit string appended.

Recorded results for 5 sequences are shown here.
> print(dat)
   sequence.chain  tested.on  quantitative.readout
1      CGGGGATTAG        ATP                 0.994
2      TTTTTTCAAG        ATP                 0.978
3      AGTTGGTAGC        ATP                  1.01
4      GGACTCGGGC        ATP                 0.985
5      GGGAGAAGAG        ATP                 0.979

Which value of switch fluorescence ratio has been reported for AGGGGGGATA in the records?
1.02

Which value of switch fluorescence ratio has been reported for GGAGTGCTGG in the records?
0.995

Which value of switch fluorescence ratio has been reported for AGGGGAATAT in the records?
1.03

Which value of switch fluorescence ratio has been reported for TTAAAGGATC in the records?
0.968

Which value of switch fluorescence ratio has been reported for CTATTTAGAT in the records?
0.984

Which value of switch fluorescence ratio has been reported for TCCATTTTGG in the records?
0.998
